Biological target: human leukocyte elastase (hLE) (Homo sapiens)
Construct: Neutrophils (1.4 billion) were isolated from whole blood obtained from a single healthy laboratory donor; from tissue; host or cells: neutrophils from whole blood of a single healthy donor
Assay: In-vitro inhibition of hLE (cleavage of MeOSuc-AAPV-NA)
Format: biochemical
Procedure: The enzymatic activity was assayed with MeOSuc-AAPV-NA for hLE determination and Suc-AAPF-NA for hCG determination (both in 100 mM Hepes buffer, pH 7.4, containing 0.05% of the […] detergent Brij-35). The activities of the individual enzymatic fractions were 100% free from cross-contamination. […] For hLE, V is determined by fitting a linear equation to the first 6 time-points (10 min) of the kinetics data using the least squares method. […]
Residues, ends and D or L forms follow the SMILES beside them. *: point of attachment. MeOSuc = COC(=O)CCC(=O)*; Cbz = O=C(OCc1ccccc1)*
Exercise: state measured Ki for each of the compounds provided.
Numbers only, in µM.

// batch mode: one Ki value per listed entry
1. CC[C@H](C)[C@H](NC(=O)[C@H](Cc1c[nH]cn1)NC(=O)[C@@H](NC(=O)[C@@H]1CCCN1C(=O)[C@H](C)NC(=O)[C@@H](NC(=O)[C@@H](NC(=O)[C@@H](NC(=O)[C@H](Cc1ccccc1)NC(=O)CCC(=O)OC)C(C)C)[C@@H](C)O)C(C)C)C(C)C)C(=O)O [Peptide 16] (MeOSuc-FVTVAPVHI-OH)
2. CC[C@H](C)[C@H](NC(=O)[C@H](Cc1c[nH]cn1)NC(=O)[C@@H](NC(=O)[C@@H]1CCCN1C(=O)[C@H](C)NC(=O)[C@@H](NC(=O)[C@@H](NC(=O)[C@@H](NC(=O)OCc1ccccc1)C(C)C)[C@@H](C)O)C(C)C)C(C)C)C(=O)O [Peptide 20, CBz-Val89-Thr-Val-Ala-Pro-Val-His-Ile96] (Cbz-VTVAPVHI-OH)

[out]
[100, 165]

----------
Exercise: state measured Ki for each of the substances provided.
Biological target: human leukocyte elastase (hLE) (Homo sapiens, UniProt P08246)
Construct: Neutrophils (1.4 billion) were isolated from whole blood obtained from a single healthy laboratory donor; from tissue; host or cells: neutrophils from whole blood of a single healthy donor
Sequence (P08246 30-247 limits assumed): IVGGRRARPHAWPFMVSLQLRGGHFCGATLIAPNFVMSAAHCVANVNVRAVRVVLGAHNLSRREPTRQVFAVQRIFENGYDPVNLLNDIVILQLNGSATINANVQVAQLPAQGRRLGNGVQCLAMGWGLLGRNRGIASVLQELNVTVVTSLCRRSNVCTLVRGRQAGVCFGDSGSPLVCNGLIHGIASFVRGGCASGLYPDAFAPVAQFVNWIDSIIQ
Assay: In-vitro inhibition of hLE (cleavage of MeOSuc-AAPV-NA)
Format: biochemical
Experimental: The enzymatic activity was assayed with MeOSuc-AAPV-NA for hLE determination and Suc-AAPF-NA for hCG determination (both in 100 mM Hepes buffer, pH 7.4, containing 0.05% of the […] detergent Brij-35). The activities of the individual enzymatic fractions were 100% free from cross-contamination. […] For hLE, V is determined by fitting a linear equation to the first 6 time-points (10 min) of the kinetics data using the least squares method. […]
No end group written: not given here.
# answer = value followed by unit

Example cases with answers are listed next.
substance="GSEILFEVPEVTVAPVHI [Peptide 2]" measured_property=Ki experimental_value="50 µM"
substance="VTVAPVHIP-NH2 [Peptide 12]" measured_property=Ki experimental_value="70 µM"
substance="SFTVGGSEILFEVPEVTVAPVHI [Peptide 3]" measured_property=Ki experimental_value="27 µM"
substance="SFTVGGSEILFEVPEVTVAPVHICT [Peptide 3a]" measured_property=Ki experimental_value="20 µM"
substance="VTVAPVHIPP-NH2 [Peptide 14]" measured_property=Ki experimental_value="85 µM"
substance="H-VTVAPVHI-OH [Peptide 1, Val89-Thr-Val-Ala-Pro-Val-His-Ile96]" measured_property=Ki experimental_value="120 µM"
substance="SFTVGGSEILFEVPEVTVAPVHICTSWESA [Peptide 3b]" measured_property=Ki experimental_value="22 µM"

# input for lookup
[in] Fill in Ki for record DIGYSFTVGGSEILFEVPEVTVAPVHICT [Peptide 3c]
[out] 4 µM
